Ref: ChEMBL document CHEMBL5046290

- PROCEDURE_DETAILS: Plasma protein binding in human
- Assay type: ADME, cell-free
- CONDITIONS: read-out: PPB (converted)
ASSAY_ENDPOINT: fraction unbound
Could you respond with only the numeric value?

Lookup: What does the record list as fraction unbound for Cc1nc(C)c([C@H](OC(C)(C)C)C(=O)O)c(N2CCC(C)(C)CC2)c1-c1ccc(OCCc2ccc(F)cc2)cc1 ?
Found: 0.2

====

- PROCEDURE_DETAILS: Cmax in Sprague-Dawley rat at 5 mg/kg, po by LC-MS/MS analysis
- Assay type: ADME, organism-based
- Design: route oral, dose 5 mg/kg
- CONDITIONS: in vivo
ASSAY_ENDPOINT: Cmax
Answer shape: numeric part, then the unit.

Lookup: Reported Cmax, molecule Cc1nc(C)c([C@H](OC(C)(C)C)C(=O)O)c(N2CCC(C)(C)CC2)c1-c1ccc(OCCc2ccc(F)cc2)cc1 : ____
Found: 2760 nM

====

- PROCEDURE_DETAILS: Oral bioavailability in cynomolgus monkey at 2 mg/kg by LC-MS/MS analysis
- Format: ADME, organism-based, Macaca fascicularis
- CONDITIONS: in vivo
ASSAY_ENDPOINT: bioavailability (%)
Write it as a number; the unit % goes unstated.

Lookup: Could you tell me which bioavailability is on file for Cc1nc(C)c([C@H](OC(C)(C)C)C(=O)O)c(N2CCC(C)(C)CC2)c1-c1ccc(OCCc2ccc(F)cc2)cc1 ?
Found: 54

====

- Test system: UGT
- PROCEDURE_DETAILS: Metabolic stability assessed as rat UGT-mediated metabolism by measuring half life by phase II UGT conjugation assay
- Type: ADME
ASSAY_ENDPOINT: half-life

Lookup: What value of measured half-life is listed for Cc1nc(C)c([C@H](OC(C)(C)C)C(=O)O)c(N2CCC(C)(C)CC2)c1-c1ccc(OCCc2ccc(F)cc2)cc1 ?
Found: ≥ 2 h

====

- PROCEDURE_DETAILS: Plasma protein binding in monkey
- Format: ADME, cell-free, Macaca mulatta
- CONDITIONS: rhesus monkey, read-out: PPB (converted)
ASSAY_ENDPOINT: fraction unbound
// return a plain number; no unit text

Lookup: Dear colleague, I am looking for the recorded fraction unbound of the following molecule: Cc1nc(C)c([C@H](OC(C)(C)C)C(=O)O)c(N2CCC(C)(C)CC2)c1-c1ccc(OCCc2ccc(F)cc2)cc1
Found: 0.21

====

- Test system: UGT
- PROCEDURE_DETAILS: Metabolic stability assessed as dog UGT-mediated metabolism by measuring half life by phase II UGT conjugation assay
- Format: ADME, Canis lupus familiaris
ASSAY_ENDPOINT: half-life

Lookup: // returns reported half-life for input Cc1nc(C)c([C@H](OC(C)(C)C)C(=O)O)c(N2CCC(C)(C)CC2)c1-c1ccc(OCCc2ccc(F)cc2)cc1
Found: ≥ 2 h

====

- PROCEDURE_DETAILS: Oral bioavailability in CD-1 mouse at 5 mg/kg by LC-MS/MS analysis
- Format: ADME, organism-based
- CONDITIONS: in vivo
ASSAY_ENDPOINT: bioavailability (%)
Kindly provide the numeric value in % only, without the unit symbol.

Lookup: Suppose we examine the compound Cc1nc(C)c([C@H](OC(C)(C)C)C(=O)O)c(N2CCC(C)(C)CC2)c1-c1ccc(OCCc2ccc(F)cc2)cc1 ; what bioavailability value has been reported?
Found: 89
